Where do the numbers come from? From ChEMBL document CHEMBL5376013.

System: HOP-62
measurementDescription: Antitumor activity against human HOP-62 cells assessed as growth inhibition at 10 uM relative to control
Format: functional
recordedConditions: read-out: GI
measureName: inhibition of growth at 10 µM (%)
Enter your answer as a number in %; do not include the unit.

>  <smilesInput>
CSc1nc(-c2ccc(Cl)cc2)c(C#N)c(N2CCOCC2)n1

>  <measureName>
inhibition of growth at 10 µM

>  <unit>
%

>  <recordedNumber>
15.7

$$$$
>  <smilesInput>
N#Cc1c(-c2ccc(Cl)cc2)nc(NN)nc1N1CCOCC1

>  <measureName>
inhibition of growth at 10 µM

>  <unit>
%

>  <recordedNumber>
14.4

$$$$
>  <smilesInput>
CC1=NN(c2nc(-c3ccc(Cl)cc3)c(C#N)c(N3CCOCC3)n2)C(=O)C1

>  <measureName>
inhibition of growth at 10 µM

>  <unit>
%

>  <recordedNumber>
12.6

$$$$
>  <smilesInput>
N#Cc1c(-c2ccc(Cl)cc2)nc(N/N=C/c2ccc[nH]2)nc1N1CCOCC1

>  <measureName>
inhibition of growth at 10 µM

>  <unit>
%

>  <recordedNumber>
58.4

$$$$
>  <smilesInput>
N#Cc1c(-c2ccc(Cl)cc2)nc(N/N=C/c2cccc(O)c2)nc1N1CCOCC1

>  <measureName>
inhibition of growth at 10 µM

>  <unit>
%

>  <recordedNumber>
21.2

$$$$
>  <smilesInput>
Cc1cc(C)n(-c2nc(-c3ccc(Cl)cc3)c(C#N)c(N3CCOCC3)n2)n1

>  <measureName>
inhibition of growth at 10 µM

>  <unit>
%

>  <recordedNumber>
19.9

$$$$
>  <smilesInput>
N#Cc1c(-c2ccc(Cl)cc2)nc(N/N=C/c2ccco2)nc1N1CCOCC1

>  <measureName>
inhibition of growth at 10 µM

>  <unit>
%

>  <recordedNumber>
33.6

$$$$
>  <smilesInput>
N#Cc1c(-c2ccc(Cl)cc2)nc(N/N=C/c2cccc(F)c2)nc1N1CCOCC1

>  <measureName>
inhibition of growth at 10 µM

>  <unit>
%

>  <recordedNumber>
10.3

$$$$

Moving on to another compound below.
Input line: Give its inhibition of growth at 10 µM value. Item: COc1cc(/C=N/Nc2nc(-c3ccc(Cl)cc3)c(C#N)c(N3CCOCC3)n2)cc(OC)c1OC
Output line: 10.2

----------
Below, each of the compounds is paired with its reported inhibition of growth at 10 µM value.
System: SK-MEL-5
measurementDescription: Antitumor activity against human SK-MEL-5 cells assessed as growth inhibition at 10 uM relative to control
Type: functional
recordedConditions: read-out: GI

>  <smilesInput>
CSc1nc(-c2ccc(Cl)cc2)c(C#N)c(N2CCOCC2)n1

>  <inhibition of growth at 10 µM>
< 1%

$$$$
>  <smilesInput>
N#Cc1c(-c2ccc(Cl)cc2)nc(N/N=C/c2ccc[nH]2)nc1N1CCOCC1

>  <inhibition of growth at 10 µM>
14.8%

$$$$

Moving on to another compound below.
Input line: Notebook entry, SK-MEL-5 assay: inhibition of growth at 10 µM of N#Cc1c(-c2ccc(Cl)cc2)nc(N/N=C/c2ccco2)nc1N1CCOCC1 = ?
Output line: 19.1%

----------
Test system: T47D
measurementDescription: Antitumor activity against human T47D cells assessed as growth inhibition at 10 uM relative to control
Type: functional
recordedConditions: read-out: GI
measureName: inhibition of growth at 10 µM

Examples with their reported inhibition of growth at 10 µM follow.
>  <smilesInput>
CSc1nc(Cl)c(C#N)c(-c2ccc(Cl)cc2)n1

>  <targetOrTestSystem>
T47D

>  <result>
< 1%

$$$$
>  <smilesInput>
N#Cc1c(-c2ccc(Cl)cc2)nc(N/N=C/c2cccc([N+](=O)[O-])c2)nc1N1CCOCC1

>  <targetOrTestSystem>
T47D

>  <result>
42%

$$$$
>  <smilesInput>
N#Cc1c(-c2ccc(Cl)cc2)nc(N/N=C/c2ccc[nH]2)nc1N1CCOCC1

>  <targetOrTestSystem>
T47D

>  <result>
35.1%

$$$$
>  <smilesInput>
N#Cc1c(-c2ccc(Cl)cc2)nc(N/N=C/c2cccc(Br)c2)nc1N1CCOCC1

>  <targetOrTestSystem>
T47D

>  <result>
32.5%

$$$$

Input line: Give its inhibition of growth at 10 µM value. Item: Cc1cc(C)n(-c2nc(-c3ccc(Cl)cc3)c(C#N)c(N3CCOCC3)n2)n1
Output line: 22.1%

Input line: Give its inhibition of growth at 10 µM value. Item: COc1cc(/C=N/Nc2nc(-c3ccc(Cl)cc3)c(C#N)c(N3CCOCC3)n2)cc(OC)c1OC
Output line: 51.8%

Input line: Give its inhibition of growth at 10 µM value. Item: N#Cc1c(-c2ccc(Cl)cc2)nc(N/N=C2/C(=O)Nc3ccccc32)nc1N1CCOCC1
Output line: < 1%

Input line: Give its inhibition of growth at 10 µM value. Item: N#Cc1c(-c2ccc(Cl)cc2)nc(N/N=C/c2cccc(O)c2)nc1N1CCOCC1
Output line: 35.4%

Input line: Give its inhibition of growth at 10 µM value. Item: N#Cc1c(-c2ccc(Cl)cc2)nc(N2NC(=O)CC2=N)nc1N1CCOCC1
Output line: < 1%

----------
Below, each of the molecules is paired with its reported IC50 value.
measurementDescription: Cytotoxicity against human PCS-800-011 cells assessed as inhibition of cell growth by MTT assay
Type: toxicity, cell-based
Enter your answer as a number in µM; do not include the unit.

Examples with their reported IC50 follow.
>  <molecule>
N#Cc1c(-c2ccc(Cl)cc2)nc(N/N=C/c2cccc(O)c2)nc1N1CCOCC1

>  <measureName>
IC50

>  <recordedNumber>
44.5

$$$$
>  <molecule>
N#Cc1c(-c2ccc(Cl)cc2)nc(N/N=C/c2cccc(Cl)c2)nc1N1CCOCC1

>  <measureName>
IC50

>  <recordedNumber>
17.5

$$$$

Moving on to another molecule below.
Input line: Give its IC50 value. Item: CN[C@@H]1C[C@H]2O[C@@](C)([C@@H]1OC)n1c3ccccc3c3c4c(c5c6ccccc6n2c5c31)C(=O)NC4 [STAUROSPORINE]
Output line: 18.3

----------
Tested on: LOX IMVI
measurementDescription: Antitumor activity against human LOX IMVI cells assessed as growth inhibition at 10 uM relative to control
Type: functional
recordedConditions: read-out: GI
measureName: inhibition of growth at 10 µM (%)
Enter your answer as a number in %; do not include the unit.

Examples with their reported inhibition of growth at 10 µM follow.
>  <smilesInput>
N#Cc1c(-c2ccc(Cl)cc2)nc(N/N=C2/C(=O)Nc3ccc(Br)cc32)nc1N1CCOCC1

>  <targetOrTestSystem>
LOX IMVI

>  <inhibition of growth at 10 µM, %>
14.6

$$$$
>  <smilesInput>
N#Cc1c(-c2ccc(Cl)cc2)nc(N/N=C/c2cccc(O)c2)nc1N1CCOCC1

>  <targetOrTestSystem>
LOX IMVI

>  <inhibition of growth at 10 µM, %>
38.2

$$$$
>  <smilesInput>
Cc1cc(C)n(-c2nc(-c3ccc(Cl)cc3)c(C#N)c(N3CCOCC3)n2)n1

>  <targetOrTestSystem>
LOX IMVI

>  <inhibition of growth at 10 µM, %>
20.1

$$$$
>  <smilesInput>
N#Cc1c(-c2ccc(Cl)cc2)nc(N/N=C2/C(=O)Nc3ccc(Cl)cc32)nc1N1CCOCC1

>  <targetOrTestSystem>
LOX IMVI

>  <inhibition of growth at 10 µM, %>
16.8

$$$$

Input line: Give its inhibition of growth at 10 µM value. Item: CC1=NN(c2nc(-c3ccc(Cl)cc3)c(C#N)c(N3CCOCC3)n2)C(=O)C1
Output line: 24.5

----------
Test system: TK-10
measurementDescription: Antitumor activity against human TK-10 cells assessed as growth inhibition at 10 uM relative to control
Format: functional
recordedConditions: read-out: GI
Below, each of the molecules is paired with its reported inhibition of growth at 10 µM value.

Examples with their reported inhibition of growth at 10 µM follow.
>  <smilesInput>
CSc1nc(Cl)c(C#N)c(-c2ccc(Cl)cc2)n1

>  <inhibition of growth at 10 µM>
< 1%

$$$$
>  <smilesInput>
N#Cc1c(-c2ccc(Cl)cc2)nc(N/N=C/c2cccc(Cl)c2)nc1N1CCOCC1

>  <inhibition of growth at 10 µM>
< 1%

$$$$
>  <smilesInput>
N#Cc1c(-c2ccc(Cl)cc2)nc(NN)nc1N1CCOCC1

>  <inhibition of growth at 10 µM>
< 1%

$$$$
>  <smilesInput>
COc1cc(/C=N/Nc2nc(-c3ccc(Cl)cc3)c(C#N)c(N3CCOCC3)n2)cc(OC)c1OC

>  <inhibition of growth at 10 µM>
15.7%

$$$$

Input line: Notebook entry, TK-10 assay: inhibition of growth at 10 µM of N#Cc1c(-c2ccc(Cl)cc2)[nH]c(=S)[nH]c1=O = ?
Output line: < 1%

Input line: Notebook entry, TK-10 assay: inhibition of growth at 10 µM of N#Cc1c(-c2ccc(Cl)cc2)nc(NN2C(=O)c3ccccc3C2=O)nc1N1CCOCC1 = ?
Output line: < 1%

Input line: Notebook entry, TK-10 assay: inhibition of growth at 10 µM of N#Cc1c(-c2ccc(Cl)cc2)nc(N2NC(=O)CC2=N)nc1N1CCOCC1 = ?
Output line: < 1%

Input line: Notebook entry, TK-10 assay: inhibition of growth at 10 µM of N#Cc1c(-c2ccc(Cl)cc2)nc(N/N=C/c2ccc[nH]2)nc1N1CCOCC1 = ?
Output line: 36.7%

Input line: Notebook entry, TK-10 assay: inhibition of growth at 10 µM of N#Cc1c(-c2ccc(Cl)cc2)nc(N/N=C2/C(=O)Nc3ccc(Br)cc32)nc1N1CCOCC1 = ?
Output line: < 1%

Input line: Notebook entry, TK-10 assay: inhibition of growth at 10 µM of N#Cc1c(-c2ccc(Cl)cc2)nc(N/N=C2/C(=O)Nc3ccccc32)nc1N1CCOCC1 = ?
Output line: < 1%

Input line: Notebook entry, TK-10 assay: inhibition of growth at 10 µM of CC1=NN(c2nc(-c3ccc(Cl)cc3)c(C#N)c(N3CCOCC3)n2)C(=O)C1 = ?
Output line: < 1%

Input line: Notebook entry, TK-10 assay: inhibition of growth at 10 µM of N#Cc1c(-c2ccc(Cl)cc2)nc(N/N=C/c2cccc(F)c2)nc1N1CCOCC1 = ?
Output line: < 1%

Input line: Notebook entry, TK-10 assay: inhibition of growth at 10 µM of N#Cc1c(-c2ccc(Cl)cc2)nc(N/N=C/c2ccco2)nc1N1CCOCC1 = ?
Output line: 37.6%

Input line: Notebook entry, TK-10 assay: inhibition of growth at 10 µM of N#Cc1c(-c2ccc(Cl)cc2)nc(N/N=C/c2cccc(Br)c2)nc1N1CCOCC1 = ?
Output line: < 1%

Input line: Notebook entry, TK-10 assay: inhibition of growth at 10 µM of N#Cc1c(-c2ccc(Cl)cc2)nc(N/N=C2/C(=O)Nc3ccc(Cl)cc32)nc1N1CCOCC1 = ?
Output line: < 1%

Input line: Notebook entry, TK-10 assay: inhibition of growth at 10 µM of CSc1nc(-c2ccc(Cl)cc2)c(C#N)c(N2CCOCC2)n1 = ?
Output line: < 1%
